Measured values drawn from ChEMBL document CHEMBL2029267 for this set.

- TARGET: Lysosomal alpha-glucosidase (Homo sapiens)
- ASSAY REMARKS: Inhibition of human lysosomal alpha-glucosidase using 4-methylumbelliferyl alpha-D-glucopyranoside as substrate at 200 uM by fluorimetric analysis
The source made the active and inactive calls. The calls are words filed in the database; no cut-off is given here.
PROPERTY MEASURED: inhibition

Please review the following examples before continuing.
| LINE NOTATION | inhibition |
| --- | --- |
| O=C(CCCSCC[C@H]1NC[C@@H](O)[C@H](O)[C@H]1O)N1CCOCC1 | inactive |
| CCCCCCCCSCC[C@H]1NC[C@@H](O)[C@H](O)[C@H]1O.Cl | inactive |
| CCSCC[C@H]1NC[C@@H](O)[C@H](O)[C@H]1O | inactive |
| CCCCSCC[C@H]1NC[C@@H](O)[C@H](O)[C@H]1O | inactive |

Then there is this compound:
IN: Request the reported inhibition associated with CCCCCCSCC[C@H]1NC[C@@H](O)[C@H](O)[C@H]1O.Cl
OUT: inactive
